Consider the following substances and their measured APOE RNA (% control) Cortex readings.
- Tested on: human APOE RNA
- PROTOCOL DESCRIPTION: Activity in APOE C57BL/6NTac-Apoeem7250 knock-in mice, single ICV bolus, 8 weeks (Example 11)
- Format: in vivo
- ASSAY SETUP: cortex; single ICV bolus 300 μg; 8 weeks post treatment; normalized to mouse Ppia
- Procedure: Modified oligonucleotides described above were tested in the APOE C57BL/6NTac-Apoeem7250 knock-in mouse model described above. Each mouse received a single ICV bolus of 300 μg of modified oligonucleotide. […] Eight weeks post treatment, mice were sacrificed and RNA was extracted from cortical brain tissue and spinal cord for quantitative real-time RT-PCR analysis of RNA expression of APOE using human primer probe set RTS3073 (described herein above). […]
Strand notation (5' to 3'): a small letter for the sugar, then the base; units joined by * are phosphorothioate-linked, units joined directly phosphodiester-linked; [ ] holds rarer units or linkages, { } end groups; capitals alone tell only the bases. [ms] = mesyl phosphoramidate linkage; e = 2'-O-(2-methoxyethyl) (MOE); k = constrained ethyl (cEt); [5mC] = 5-methylcytosine; d = 2'-deoxy (DNA)
RECORDED METRIC: APOE RNA (% control) Cortex

SUBSTANCE | UNIT DESCRIPTOR | TEST RESULT
1693048: 5-10-5 MOE gapmer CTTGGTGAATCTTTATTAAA, linkages ssssszzzzssssszosss (antisense e[5mC]*eT*eT*eG*eG*dT[ms]dG[ms]dA[ms]dA[ms]dT*d[5mC]*dT*dT*dT*dA[ms]eTeT*eA*eA*eA) [compound 1693048] | % control | 97
1785619 (k[5mC]*dT[ms]dT[ms]kG*dG[ms]kT*dG*dA[ms]dA[ms]dT*d[5mC]*dT*dT*dT*dA[ms]dT*kT*kA*dA[ms]kA) [Compound 1785619] | % control | 40

====

- Tested on: human APOE RNA
- PROTOCOL DESCRIPTION: Dose-dependent inhibition of human APOE RNA in HepG2 cells, electroporation, 50,000 cells per well, RT-PCR normalized to GAPDH (Example 4, Tables 8-10)
- Assay type: cell-based
- ASSAY SETUP: 33 nM; HepG2, electroporation, 16-hour treatment
Strand notation (5' to 3'): a small letter for the sugar, then the base; units joined by * are phosphorothioate-linked, units joined directly phosphodiester-linked; [ ] holds rarer units or linkages, { } end groups; capitals alone tell only the bases. e = 2'-O-(2-methoxyethyl) (MOE); k = constrained ethyl (cEt); [5mC] = 5-methylcytosine; d = 2'-deoxy (DNA)
Consider the following substances and their measured APOE RNA (% UTC) readings.

SUBSTANCE | APOE RNA (% UTC)
1757551: mixed MOE/cEt gapmer TTGGTGAATCTTTATTAA, sugar eeekkddddddddeeeee, linkages soossssssssssooss (eT*eTeGkG*kT*dG*dA*dA*dT*d[5mC]*dT*dT*dT*eAeTeT*eA*eA) [compound 1757551] | 88 % UTC
1757585 (eT*eTeGkGkT*dG*dA*dA*dT*d[5mC]*dT*dT*dT*dA*dT*kTeAeA*eA*e[5mC]; antisense) [Compound 1757585] | 44 % UTC
1757567 (eA*e[5mC]eTeTeG*dG*dT*dG*dA*dA*dT*d[5mC]*dT*dT*dT*kAeTeT*eA*eA; antisense) [Compound 1757567] | 97 % UTC
1757581 (eT*eTeGeGkT*dG*dA*dA*dT*d[5mC]*dT*dT*dT*dA*dT*eTeAeA*eA*e[5mC]; antisense) [Compound 1757581] | 100 % UTC
Compound No. 1517891: comparator of WO 2022/066956; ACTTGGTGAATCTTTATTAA, sugar eeeeeddddddddddeeeee, linkages sooosssssssssssooss (MOE gapmer, mixed PS/PO linkages, chemistry not fully specified) [reference compound] | 81 % UTC

====

Consider the following substances and their measured IC50 readings.
- Tested on: human APOE RNA
- PROTOCOL DESCRIPTION: Dose-dependent inhibition of human APOE RNA in HepG2 cells, electroporation, 50,000 cells per well, RT-PCR normalized to GAPDH (Example 4, Tables 8-10)
- Assay type: cell-based
- ASSAY SETUP: HepG2, electroporation, 24-hour treatment
Strand notation (5' to 3'): a small letter for the sugar, then the base; units joined by * are phosphorothioate-linked, units joined directly phosphodiester-linked; [ ] holds rarer units or linkages, { } end groups; capitals alone tell only the bases. [ms] = mesyl phosphoramidate linkage; k = constrained ethyl (cEt); [5mC] = 5-methylcytosine; d = 2'-deoxy (DNA)

SUBSTANCE | UNIT DESCRIPTOR | IC50
1746795 (k[5mC]*kT*dT[ms]kG*dG[ms]dT[ms]dG[ms]dA[ms]dA[ms]dT*d[5mC]*dT*dT*dT*dA[ms]dT*kT*dA[ms]kA*kA; antisense) [Compound 1746795] | nM | 1290
1746793 (k[5mC]*dT[ms]dT[ms]dG[ms]kG*kT*dG[ms]dA[ms]dA[ms]dT*d[5mC]*dT*dT*dT*dA[ms]dT*kT*kA*dA[ms]kA; antisense) [Compound 1746793] | nM | 560
1746804 (k[5mC]*kT*kT*dG[ms]dG[ms]dT[ms]dG[ms]dA[ms]dA[ms]dT*d[5mC]*dT*dT*dT*dA[ms]dT*dT[ms]kA*kA*kA; antisense) [Compound 1746804] | nM | 680
1747053 (k[5mC]*dT[ms]dT[ms]kG*kG*kT*dG[ms]dA[ms]dA[ms]dT*d[5mC]*dT*dT*dT*dA[ms]dT*kT*dA[ms]dA[ms]kA; antisense) [Compound 1747053] | nM | 2170
1746807 (k[5mC]*kT*dT[ms]dG[ms]dG[ms]kT*dG[ms]dA[ms]dA[ms]dT*d[5mC]*dT*dT*dT*dA[ms]dT*dT[ms]kA*kA*kA; antisense) [Compound 1746807] | nM | 1430

====

- Tested on: human APOE RNA
- PROTOCOL DESCRIPTION: Dose-dependent inhibition of human APOE RNA in differentiated SH-SY5Y cells, free uptake, 5 days (Example 5)
- Format: cell-based
- ASSAY SETUP: 1,280 nM, 5 days (Table 13)
Strand notation (5' to 3'): a small letter for the sugar, then the base; units joined by * are phosphorothioate-linked, units joined directly phosphodiester-linked; [ ] holds rarer units or linkages, { } end groups; capitals alone tell only the bases. [ms] = mesyl phosphoramidate linkage; e = 2'-O-(2-methoxyethyl) (MOE); k = constrained ethyl (cEt); [5mC] = 5-methylcytosine; d = 2'-deoxy (DNA)
Consider the following substances and their measured APOE RNA (% UTC) readings.

SUBSTANCE | APOE RNA (% UTC)
Aes^mCeoTeoTesGesGksTdsGdzAdzAdzTds^mCdsTdsTdsTdsAdzTksTksAesAe (eA*e[5mC]eTeT*eG*kG*dT*dG[ms]dA[ms]dA[ms]dT*d[5mC]*dT*dT*dT*dA[ms]kT*kT*eA*eA) [Compound No. 1757576] | 29
TezTeoGeoGksTdsGdzAdzAdzTds^mCdsTdsTdsTdsAdzTksTksAesAesAes^mCe (antisense eT[ms]eTeGkG*dT*dG[ms]dA[ms]dA[ms]dT*d[5mC]*dT*dT*dT*dA[ms]kT*kT*eA*eA*eA*e[5mC]) [Compound No. 1809814] | 39
^mCksTksTksGdzGdzTdzGdzAdzAdzTds^mCdsTdsTdsTdsAdsTdsTksAksAdzAk (antisense k[5mC]*kT*kT*dG[ms]dG[ms]dT[ms]dG[ms]dA[ms]dA[ms]dT*d[5mC]*dT*dT*dT*dA*dT*kT*kA*dA[ms]kA) [Compound No. 1785602] | 36
Aks^mCeoTeoTesGesGksTdsGdzAdzAdzTds^mCdsTdsTdsTdsAdzTksTksAesAe (kA*e[5mC]eTeT*eG*kG*dT*dG[ms]dA[ms]dA[ms]dT*d[5mC]*dT*dT*dT*dA[ms]kT*kT*eA*eA) [Compound No. 1809635] | 40

====

Consider the following substances and their measured APOE RNA (% UTC) readings.
- Test system: human APOE RNA
- PROTOCOL DESCRIPTION: Dose-dependent inhibition of human APOE RNA in HepG2 cells, electroporation, 50,000 cells per well, RT-PCR normalized to GAPDH (Example 4, Tables 8-10)
- Type: cell-based
- ASSAY SETUP: 205 nM; HepG2, electroporation, 24-hour treatment
Strand notation (5' to 3'): a small letter for the sugar, then the base; units joined by * are phosphorothioate-linked, units joined directly phosphodiester-linked; [ ] holds rarer units or linkages, { } end groups; capitals alone tell only the bases. [ms] = mesyl phosphoramidate linkage; k = constrained ethyl (cEt); [5mC] = 5-methylcytosine; d = 2'-deoxy (DNA)
RECORDED METRIC: APOE RNA (% UTC)

SUBSTANCE | UNIT DESCRIPTOR | TEST RESULT
1753989 (k[5mC]*dT[ms]kT*dG[ms]kG*dT*dG[ms]dA[ms]dA[ms]dT*d[5mC]*dT*dT*dT*dA[ms]kT*dT[ms]kA*dA[ms]kA; antisense) [Compound 1753989] | % UTC | 94
1746784 (k[5mC]*kT*kT*dG[ms]dG[ms]dT[ms]dG[ms]dA[ms]dA[ms]dT*d[5mC]*dT*dT*dT*dA[ms]dT*kT*kA*dA[ms]kA; antisense) [Compound 1746784] | % UTC | 61
1746789 (k[5mC]*dT[ms]kT*dG[ms]kG*dT[ms]dG[ms]dA[ms]dA[ms]dT*d[5mC]*dT*dT*dT*dA[ms]dT*kT*kA*dA[ms]kA; antisense) [Compound 1746789] | % UTC | 76
